procedure summary: self-splicing fitness, log relative to wild type (ln ratio); higher = more splicing; Tetrahymena group I intron in knt gene, E. coli kanamycin selection, DiMSum; sequences stand for … in CUCUCU…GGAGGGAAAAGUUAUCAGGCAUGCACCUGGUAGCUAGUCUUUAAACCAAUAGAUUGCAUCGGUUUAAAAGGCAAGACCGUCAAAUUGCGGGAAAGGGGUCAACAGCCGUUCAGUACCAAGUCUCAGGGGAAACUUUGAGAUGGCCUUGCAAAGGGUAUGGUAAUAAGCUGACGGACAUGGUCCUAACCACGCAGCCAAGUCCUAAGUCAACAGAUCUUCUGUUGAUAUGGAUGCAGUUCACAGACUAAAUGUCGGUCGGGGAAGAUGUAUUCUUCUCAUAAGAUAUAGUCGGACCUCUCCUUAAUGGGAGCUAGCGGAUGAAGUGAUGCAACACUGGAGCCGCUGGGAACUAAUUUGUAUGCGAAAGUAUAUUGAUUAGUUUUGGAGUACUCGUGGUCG;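 note: selection with 25 µg/mL kanamycin versus none on LB agar overnight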
experimental setup: 30 °C
Response key: T means self-splicing fitness (ln) >= -2; F means self-splicing fitness (ln) < -2.

Some solved cases for reference:
INSERT INTO results (sequence_string, label) VALUES
  ('ACUAAGCAAUAUUACGUGCU', 'T'),
  ('AACAAGCAAUAUUACGACGA', 'T'),
  ('AGGCAGCAAUAUUACGGGGU', 'F'),
  ('AACAAGCAAUAUUACGCAUG', 'T'),
  ('CAACAGCAAUAUUACGCUAG', 'F'),
  ('AAUAAGCAAUAUUACGGACG', 'T');

stdin: Quick check, self-splicing fitness (ln) >= -2? AUAUAGCAAUAUUACGCCAA
stdout: T

stdin: Quick check, self-splicing fitness (ln) >= -2? GUCGAGCAAUAUUACGGCAU
stdout: T
